# Test system: rat primary articular chondrocytes
# method.notes: Toxicity analysis (MTT) in rat primary chondrocytes
# test.context: 48 h
measurement.kind: First toxic concentration at 48 h in rat primary chondrocytes (µM)
Your answer should be a plain number; it is taken to be in µM.

Illustrative cases are given below, each with its answer.
> print(dat)
                                   compound  test.value
1  Cc1ccc(NC(=O)c2cccc(S(C)(=O)=O)c2)cc1CCc1cnc(Nc2cnccn2)s1 [Compound 48]           3
2  CS(=O)(=O)c1cccc(C(=O)Nc2ccc(F)c(CCc3cc(Nc4cnccn4)[nH]n3)c2)c1 [Compound 12]          10
3  Cc1ccc(NC(=O)c2cccc(C(F)F)c2)cc1CCc1cc(Nc2cnccn2)[nH]n1 [Compound 33]          10
4  Cc1nc(C(=O)Nc2ccc(C)c(CCc3cc(Nc4cnccn4)[nH]n3)c2)c(C(F)(F)F)o1 [Compound 6]           3
5  CCNC1(c2ccc(C(=O)Nc3ccc(C)c(CCc4cc(Nc5cnccn5)[nH]n4)c3)cc2)CC1 [Compound 4]           3

Give the value of First toxic concentration at 48 h in rat primary chondrocytes reported for the following: O=C(Nc1ccc(F)c(CCc2cc(Nc3cnccn3)[nH]n2)c1)c1cccc(C(F)(F)F)c1 [Compound 13] 3

Give the value of First toxic concentration at 48 h in rat primary chondrocytes reported for the following: Cc1cnc(Nc2cc(CCc3cc(NC(=O)c4cccc(C(F)(F)F)c4)ccc3F)n[nH]2)c(C)n1 [Compound 14] 10

Give the value of First toxic concentration at 48 h in rat primary chondrocytes reported for the following: Cc1nccnc1Nc1cc(CCc2cc(NC(=O)c3cccc(C(F)(F)F)c3)ccc2F)n[nH]1 [Compound 15] 3
